assay: Cytotoxicity against human mesenchymal bone marrow stem cells measured after 48 hrs by MTT assay; assay type: toxicity, cell-based
endpoint: IC50 at 48 h (nM)
Report the value in nM with no unit label.

Reference set, count: 5
1. C#CCOC(=O)[C@]1(C)CC[C@]2(C)CC[C@]3(C)C4=CC=C5C(=CC(=O)C(OC(=O)c6ccc(F)cc6)=C5C)[C@]4(C)CC[C@@]3(C)[C@@H]2C1    2000
2. C#CCOC(=O)[C@]1(C)CC[C@]2(C)CC[C@]3(C)C4=CC=C5C(=CC(=O)C(OC(=O)/C=C/c6cccc(Cl)c6)=C5C)[C@]4(C)CC[C@@]3(C)[C@@H]2C1    2000
3. C#CCOC(=O)[C@]1(C)CC[C@]2(C)CC[C@]3(C)C4=CC=C5C(=CC(=O)C(OC(=O)N6CCN(c7ccc(Cl)cc7)CC6)=C5C)[C@]4(C)CC[C@@]3(C)[C@@H]2C1    1600
4. C#CCOC(=O)[C@]1(C)CC[C@]2(C)CC[C@]3(C)C4=CC=C5C(=CC(=O)C(OC(=O)N6c7ccccc7CCc7ccccc76)=C5C)[C@]4(C)CC[C@@]3(C)[C@@H]2C1    1000
5. C#CCOC(=O)[C@]1(C)CC[C@]2(C)CC[C@]3(C)C4=CC=C5C(=CC(=O)C(OC(=O)N(C)CCC)=C5C)[C@]4(C)CC[C@@]3(C)[C@@H]2C1    900

Req: Endpoint output: IC50 at 48 h of C#CCOC(=O)[C@]1(C)CC[C@]2(C)CC[C@]3(C)C4=CC=C5C(=CC(=O)C(OC(=O)N6c7ccccc7C=Cc7ccccc76)=C5C)[C@]4(C)CC[C@@]3(C)[C@@H]2C1 . Value?
Resp: 2200

Req: Consider the compound C#CCOC(=O)[C@]1(C)CC[C@]2(C)CC[C@]3(C)C4=CC=C5C(=CC(=O)C(OC(=O)N6c7ccccc7Sc7ccccc76)=C5C)[C@]4(C)CC[C@@]3(C)[C@@H]2C1 and give its measured IC50 at 48 h.
Resp: 2900

Req: Fill blank: measured IC50 at 48 h of the compound C#CCOC(=O)[C@]1(C)CC[C@]2(C)CC[C@]3(C)C4=CC=C5C(=CC(=O)C(OC(=O)/C=C/c6ccccc6)=C5C)[C@]4(C)CC[C@@]3(C)[C@@H]2C1 is ____.
Resp: 2800

Req: Quick one: IC50 at 48 h for CC1=C(O)C(=O)C=C2C1=CC=C1[C@@]2(C)CC[C@@]2(C)[C@@H]3C[C@](C)(C(=O)OCc4ccccc4)CC[C@]3(C)CC[C@]12C ?
Resp: 1000

Req: What IC50 at 48 h value was documented for this compound, C#CCOC(=O)[C@]1(C)CC[C@]2(C)CC[C@]3(C)C4=CC=C5C(=CC(=O)C(OC(=O)N(c6ccccc6)c6ccccc6)=C5C)[C@]4(C)CC[C@@]3(C)[C@@H]2C1 ?
Resp: 3100

Req: IC50 at 48 h lookup needed for CC1=C(O)C(=O)C=C2C1=CC=C1[C@@]2(C)CC[C@@]2(C)[C@@H]3C[C@](C)(C(=O)O)CC[C@]3(C)CC[C@]12C , thanks.
Resp: 700

* * *

Listed next: entries and their corresponding inhibition.
biological target: Heat shock protein HSP 90-beta/Hsp90 co-chaperone Cdc37 (Homo sapiens, UniProt P08238+Q16543); assay: Disruption of His-tagged full length HSP90 (unknown origin)/GST-tagged Cdc37 (unknown origin) at 50 uM measured after 1 hr by HTRF method; type: protein-complex assay
Sequence (P08238 whole entry): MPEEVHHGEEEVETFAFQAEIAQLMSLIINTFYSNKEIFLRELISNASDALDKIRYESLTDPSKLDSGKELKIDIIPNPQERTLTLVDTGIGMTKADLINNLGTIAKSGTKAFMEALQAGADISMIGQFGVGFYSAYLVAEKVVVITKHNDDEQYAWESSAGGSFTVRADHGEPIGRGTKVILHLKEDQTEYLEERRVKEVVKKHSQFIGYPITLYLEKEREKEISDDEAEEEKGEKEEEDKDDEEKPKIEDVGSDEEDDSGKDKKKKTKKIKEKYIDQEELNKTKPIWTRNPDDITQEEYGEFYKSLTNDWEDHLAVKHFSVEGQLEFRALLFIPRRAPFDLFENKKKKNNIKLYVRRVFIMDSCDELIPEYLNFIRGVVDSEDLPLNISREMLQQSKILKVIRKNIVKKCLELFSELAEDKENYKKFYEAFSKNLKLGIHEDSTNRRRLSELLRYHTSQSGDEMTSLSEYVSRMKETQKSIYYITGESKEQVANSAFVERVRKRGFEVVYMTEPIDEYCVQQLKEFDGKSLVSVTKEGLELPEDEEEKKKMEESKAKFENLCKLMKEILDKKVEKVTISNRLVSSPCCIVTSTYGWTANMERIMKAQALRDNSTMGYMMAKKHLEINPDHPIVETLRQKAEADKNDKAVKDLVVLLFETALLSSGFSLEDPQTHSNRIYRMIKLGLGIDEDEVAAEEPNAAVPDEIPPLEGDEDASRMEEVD
Sequence (Q16543 whole entry): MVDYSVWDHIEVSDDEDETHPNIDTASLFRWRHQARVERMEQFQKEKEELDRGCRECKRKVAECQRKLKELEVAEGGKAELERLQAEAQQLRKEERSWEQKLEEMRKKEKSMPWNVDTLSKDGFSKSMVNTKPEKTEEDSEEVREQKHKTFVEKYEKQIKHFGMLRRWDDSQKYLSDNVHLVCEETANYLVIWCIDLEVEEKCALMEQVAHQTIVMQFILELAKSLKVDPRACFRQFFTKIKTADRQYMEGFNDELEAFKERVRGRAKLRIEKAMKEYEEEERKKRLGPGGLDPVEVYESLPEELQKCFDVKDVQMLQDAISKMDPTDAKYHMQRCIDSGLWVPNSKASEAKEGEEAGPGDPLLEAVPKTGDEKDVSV
Numbers only; they are read as %.

1. COCCCOC(=O)[C@]1(C)CC[C@]2(C)CC[C@]3(C)C4=CC=C5C(=CC(=O)C(O)=C5C)[C@]4(C)CC[C@@]3(C)[C@@H]2C1    88.8
2. CCCCOC(=O)[C@]1(C)CC[C@]2(C)CC[C@]3(C)C4=CC=C5C(=CC(=O)C(O)=C5C)[C@]4(C)CC[C@@]3(C)[C@@H]2C1    86
3. C=CCOC(=O)[C@]1(C)CC[C@]2(C)CC[C@]3(C)C4=CC=C5C(=CC(=O)C(O)=C5C)[C@]4(C)CC[C@@]3(C)[C@@H]2C1    89.9

Req: # input compound: CC1=C(O)C(=O)C=C2C1=CC=C1[C@@]2(C)CC[C@@]2(C)[C@@H]3C[C@](C)(C(=O)OCCCl)CC[C@]3(C)CC[C@]12C ; wanted: its inhibition
Resp: 87

Req: Suppose we examine the compound CCCOC(=O)[C@]1(C)CC[C@]2(C)CC[C@]3(C)C4=CC=C5C(=CC(=O)C(O)=C5C)[C@]4(C)CC[C@@]3(C)[C@@H]2C1 ; what inhibition value has been reported?
Resp: 87.4

Req: Which inhibition is listed for CC1=C(O)C(=O)C=C2C1=CC=C1[C@@]2(C)CC[C@@]2(C)[C@@H]3C[C@](C)(C(=O)OCCBr)CC[C@]3(C)CC[C@]12C ?
Resp: 86.3

* * *

target: Heat shock protein HSP 90-beta/Hsp90 co-chaperone Cdc37 (Homo sapiens, UniProt P08238+Q16543); assay: Disruption of His-tagged full length HSP90 (unknown origin)/GST-tagged Cdc37 (unknown origin) measured after 1 hr by HTRF method
// IC50 lookup, one value per entry
Just the number please, in nM, no unit attached.

As a guide, the following entries are already answered.
1) CC1=C(O)C(=O)C=C2C1=CC=C1[C@@]2(C)CC[C@@]2(C)[C@@H]3C[C@](C)(C(=O)OCC4CCCCC4)CC[C@]3(C)CC[C@]12C    2900
2) CC1=C(O)C(=O)C=C2C1=CC=C1[C@@]2(C)CC[C@@]2(C)[C@@H]3C[C@](C)(C(=O)OCc4ccccc4C)CC[C@]3(C)CC[C@]12C    10000

Now consider a different molecule.
Req: What value of IC50 has been reported for the following molecule? CC1=C(O)C(=O)C=C2C1=CC=C1[C@@]2(C)CC[C@@]2(C)[C@@H]3C[C@](C)(C(=O)OCc4ccccc4)CC[C@]3(C)CC[C@]12C
Resp: 2400

* * *

experiment: Cytotoxicity against human mesenchymal bone marrow stem cells measured after 48 hrs by MTT assay; type: toxicity, cell-based
endpoint: IC50 at 48 h (µM)
Numbers only here, please. The scale is µM.

1. C#CCOC(=O)[C@]1(C)CC[C@]2(C)CC[C@]3(C)C4=CC=C5C(=CC(=O)C(OC(=O)/C=C/c6ccccc6F)=C5C)[C@]4(C)CC[C@@]3(C)[C@@H]2C1    1.4
2. C#CCOC(=O)[C@]1(C)CC[C@]2(C)CC[C@]3(C)C4=CC=C5C(=CC(=O)C(OC(=O)N(C)CC)=C5C)[C@]4(C)CC[C@@]3(C)[C@@H]2C1    3
3. C#CCOC(=O)[C@]1(C)CC[C@]2(C)CC[C@]3(C)C4=CC=C5C(=CC(=O)C(OC(=O)N(C)C)=C5C)[C@]4(C)CC[C@@]3(C)[C@@H]2C1    2

Req: Can you look up the measured IC50 at 48 h of C#CCOC(=O)[C@]1(C)CC[C@]2(C)CC[C@]3(C)C4=CC=C5C(=CC(=O)C(OC(=O)N6CCN(c7ccccc7Cl)CC6)=C5C)[C@]4(C)CC[C@@]3(C)[C@@H]2C1 for me?
Resp: 1.9

* * *

molecular target: Heat shock protein HSP 90-beta/Hsp90 co-chaperone Cdc37 (Homo sapiens, UniProt P08238+Q16543); assay: Disruption of His-tagged full length HSP90 (unknown origin)/GST-tagged Cdc37 (unknown origin) at 50 uM measured after 1 hr by HTRF method; assay type: protein-complex assay
endpoint: inhibition (%)
Respond numerically; units are % and should not be typed.

1. CC1=C(O)C(=O)C=C2C1=CC=C1[C@@]2(C)CC[C@@]2(C)[C@@H]3C[C@](C)(C(=O)OCCC(C)C)CC[C@]3(C)CC[C@]12C    87.8

Req: Requested read-out: inhibition. Entry: CC1=C(O)C(=O)C=C2C1=CC=C1[C@@]2(C)CC[C@@]2(C)[C@@H]3C[C@](C)(C(=O)OCc4ccccc4)CC[C@]3(C)CC[C@]12C
Resp: 90.1

Req: # inhibition lookup, item COC(=O)[C@]1(C)CC[C@]2(C)CC[C@]3(C)C4=CC=C5C(=CC(=O)C(O)=C5C)[C@]4(C)CC[C@@]3(C)[C@@H]2C1
Resp: 83.1

Req: # lookup: inhibition of CCOC(=O)[C@]1(C)CC[C@]2(C)CC[C@]3(C)C4=CC=C5C(=CC(=O)C(O)=C5C)[C@]4(C)CC[C@@]3(C)[C@@H]2C1
Resp: 85.7

Req: I have this compound here, CC1=C(O)C(=O)C=C2C1=CC=C1[C@@]2(C)CC[C@@]2(C)[C@@H]3C[C@](C)(C(=O)O)CC[C@]3(C)CC[C@]12C , and I need its recorded inhibition.
Resp: 82.3
